// provenance: ChEMBL document CHEMBL4402608

- SUBJECT OF TEST: 5HT1E receptor (Homo sapiens, UniProt P28566)
- Sequence (P28566 whole entry): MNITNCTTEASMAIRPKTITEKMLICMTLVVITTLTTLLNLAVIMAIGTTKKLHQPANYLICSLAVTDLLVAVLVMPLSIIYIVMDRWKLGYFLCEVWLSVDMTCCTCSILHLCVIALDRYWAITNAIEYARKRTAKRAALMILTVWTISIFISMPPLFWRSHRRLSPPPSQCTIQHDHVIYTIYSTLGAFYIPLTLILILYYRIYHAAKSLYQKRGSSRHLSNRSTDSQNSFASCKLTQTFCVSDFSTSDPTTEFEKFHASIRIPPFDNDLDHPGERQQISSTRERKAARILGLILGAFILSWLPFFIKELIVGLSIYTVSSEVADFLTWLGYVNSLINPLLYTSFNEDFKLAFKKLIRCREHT
- EXPERIMENT DESCRIPTION: Displacement of [3H]5-HT from recombinant human 5HT1E receptor stably expressed in HEK cell membranes at 10 uM measured after 90 mins by microbeta scintillation counting method relative to control
- TEST CONDITIONS: probe [3H]5-HT
MEASURED QUANTITY: inhibition at […], 10 µM

CCCN(CC[C@]1(O)C[C@H](NC(=O)c2ccc3ccccc3c2)C1)[C@H]1CCc2nc(N)sc2C1
< 50%

Please turn your attention to the following entry.
get_value(item= CCCN[C@H]1CCc2nc(N)sc2C1 [PRAMIPEXOLE] , readout=inhibition at […], 10 µM) returns > 50%

---

molecules and their reported inhibition at […], 10 µM
- SUBJECT OF TEST: UniProtKB Q9H3N8
- EXPERIMENT DESCRIPTION: Displacement of [3H]-Histamine from recombinant human histamine H4 receptor expressed in HEKT cell membranes at 10 uM measured after 90 mins by microbeta scintillation counting method relative to control
- TEST CONDITIONS: probe [3H]-Histamine

CCCN(CC[C@]1(O)C[C@H](NC(=O)c2ccc3ccccc3c2)C1)[C@H]1CCc2nc(N)sc2C1
< 50%

Please turn your attention to the following entry.
Observed inhibition at […], 10 µM, UniProtKB Q9H3N8, CCCN[C@H]1CCc2nc(N)sc2C1 [PRAMIPEXOLE] : > 50%

---

- SUBJECT OF TEST: Alpha-2A adrenergic receptor (Homo sapiens, UniProt P08913)
- Sequence (P08913 whole entry): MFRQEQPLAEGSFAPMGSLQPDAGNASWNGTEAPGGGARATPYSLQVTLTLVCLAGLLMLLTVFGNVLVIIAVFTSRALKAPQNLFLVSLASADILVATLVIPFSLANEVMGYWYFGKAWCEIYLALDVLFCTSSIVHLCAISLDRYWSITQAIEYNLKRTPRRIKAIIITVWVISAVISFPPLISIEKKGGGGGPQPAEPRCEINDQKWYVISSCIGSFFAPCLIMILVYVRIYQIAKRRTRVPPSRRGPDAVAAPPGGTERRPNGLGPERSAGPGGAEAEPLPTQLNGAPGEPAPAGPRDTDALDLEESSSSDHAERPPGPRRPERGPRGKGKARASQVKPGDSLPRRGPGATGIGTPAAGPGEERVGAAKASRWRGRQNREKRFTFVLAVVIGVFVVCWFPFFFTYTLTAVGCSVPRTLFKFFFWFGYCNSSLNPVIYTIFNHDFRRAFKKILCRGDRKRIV
- EXPERIMENT DESCRIPTION: Displacement of [3H]-rauwolscine from recombinant human alpha2A adrenergic receptor stably expressed in MDCK cell membranes at 10 uM measured after 90 mins by microbeta scintillation counting method relative to control
- TEST CONDITIONS: probe [3H]-rauwolscine
MEASURED QUANTITY: inhibition at […], 10 µM

CCCN(CC[C@]1(O)C[C@H](NC(=O)c2ccc3ccccc3c2)C1)[C@H]1CCc2nc(N)sc2C1
< 50%

Please turn your attention to the following entry.
get_value(item= CCCN[C@H]1CCc2nc(N)sc2C1 [PRAMIPEXOLE] , readout=inhibition at […], 10 µM) returns > 50%

---

- SUBJECT OF TEST: D(2) dopamine receptor (Homo sapiens, UniProt P14416)
- Sequence (P14416 whole entry): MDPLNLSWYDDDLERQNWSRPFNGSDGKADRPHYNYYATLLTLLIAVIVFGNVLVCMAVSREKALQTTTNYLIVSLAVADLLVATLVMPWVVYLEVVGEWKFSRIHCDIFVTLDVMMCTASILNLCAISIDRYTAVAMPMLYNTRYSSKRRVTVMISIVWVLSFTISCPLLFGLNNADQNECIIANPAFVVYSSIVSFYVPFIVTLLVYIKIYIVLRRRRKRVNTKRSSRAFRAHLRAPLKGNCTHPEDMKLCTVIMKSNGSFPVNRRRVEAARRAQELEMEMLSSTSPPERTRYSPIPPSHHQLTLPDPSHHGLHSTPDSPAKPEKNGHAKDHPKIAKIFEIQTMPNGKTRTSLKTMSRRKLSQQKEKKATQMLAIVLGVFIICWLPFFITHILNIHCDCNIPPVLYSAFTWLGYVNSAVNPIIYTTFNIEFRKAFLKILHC
- EXPERIMENT DESCRIPTION: Agonist activity at human D2R expressed in CHOK1 cells assessed as induction of beta-arrestin recruitment measured after 90 mins by beta-galactosidase based PathHunter assay
- Format: cell-based
- TEST CONDITIONS: read-out: EC50
Mark True for EC50 under 2000 nM, False if at or over.

See these solved cases before continuing.
COc1ccc(C(=O)N2CCN(CCOc3cccnc3)CC2)c(C)c1
False
COc1ccc(OCCN2CCN(C(=O)c3cc4ccc(C)cc4[nH]3)CC2)cc1
True
COc1ccc(OCCN2CCN(C(=O)c3ccc4[nH]ccc4c3)CC2)cc1
False

Now consider the entry below.
Data request: Field: below-cutoff. Rule: recorded EC50 strictly less than 2000 nM. Subject: COc1cccc(OCCN2CCN(C(=O)c3cc4cc(OC)ccc4[nH]3)CC2)c1
Data returned: True

---

- SUBJECT OF TEST: UniProtKB P35462
- Sequence (P35462 whole entry): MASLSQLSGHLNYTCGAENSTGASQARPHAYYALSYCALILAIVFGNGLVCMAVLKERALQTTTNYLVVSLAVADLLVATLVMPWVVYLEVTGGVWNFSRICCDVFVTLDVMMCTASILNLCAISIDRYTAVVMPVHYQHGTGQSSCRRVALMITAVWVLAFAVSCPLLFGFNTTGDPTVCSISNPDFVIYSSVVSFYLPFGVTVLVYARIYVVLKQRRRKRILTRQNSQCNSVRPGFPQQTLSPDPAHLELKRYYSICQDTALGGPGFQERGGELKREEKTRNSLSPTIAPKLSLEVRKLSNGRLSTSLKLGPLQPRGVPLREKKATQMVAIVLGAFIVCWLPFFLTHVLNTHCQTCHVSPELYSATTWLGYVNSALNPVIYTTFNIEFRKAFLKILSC
- EXPERIMENT DESCRIPTION: Agonist activity at human D3R expressed in CHOK1 cells assessed as induction of beta-arrestin recruitment measured after 90 mins by beta-galactosidase based PathHunter assay
- Assay type: cell-based
- TEST CONDITIONS: read-out: EC50
Mark Y for EC50 under 0.3 µM, N if at or over.

See these solved cases before continuing.
COc1ccc(OCCN2CCN(C(=O)c3cc4cccnc4[nH]3)CC2)cc1
Y
COc1ccc(C(=O)N2CCN(CCOc3cccnc3)CC2)c(C)c1
Y
COc1ccc(OCCN2CCN(C(=O)c3ccc(OC)cn3)CC2)cc1
N
COc1ccc(OCCN2CCN(C(=O)C3CCCCC3)CC2)cc1
N

Data request: Field: below-cutoff. Rule: recorded EC50 strictly less than 0.3 µM. Subject: COc1ccc(OCCN2CCN(C(=O)c3cc4ccccc4[nH]3)CC2)cc1OC
Data returned: N

Data request: Field: below-cutoff. Rule: recorded EC50 strictly less than 0.3 µM. Subject: COc1cccc(OCCN2CCN(C(=O)c3cc4cnccc4[nH]3)CC2)c1
Data returned: Y

Data request: Field: below-cutoff. Rule: recorded EC50 strictly less than 0.3 µM. Subject: COc1ccc(OCCN2CCN(C(=O)c3cc4ccc(Cl)cc4[nH]3)CC2)cc1
Data returned: Y

Data request: Field: below-cutoff. Rule: recorded EC50 strictly less than 0.3 µM. Subject: COc1ccc(OCCN2CCN(C(=O)c3cc4cnccc4[nH]3)CC2)cc1
Data returned: N

Data request: Field: below-cutoff. Rule: recorded EC50 strictly less than 0.3 µM. Subject: COc1ccc(OCCN2CCN(C(=O)c3nc4ccccc4[nH]3)CC2)cc1
Data returned: Y

Data request: Field: below-cutoff. Rule: recorded EC50 strictly less than 0.3 µM. Subject: Cc1ccc(OCCN2CCN(C(=O)c3cc4ccccc4[nH]3)CC2)cc1Cl
Data returned: N

Data request: Field: below-cutoff. Rule: recorded EC50 strictly less than 0.3 µM. Subject: COc1cccc(OCCN2CCN(C(=O)c3cc4cc(OC)ccc4[nH]3)CC2)c1
Data returned: Y

Data request: Field: below-cutoff. Rule: recorded EC50 strictly less than 0.3 µM. Subject: O=C(c1cc2ccccc2s1)N1CCN(CCOc2cccnc2)CC1
Data returned: Y
